Molecular target: F508delCFTR (Homo sapiens, UniProt P13569, DEL508-508)
Construct: expressed in transfected cells; host or cells: CFBE41o- human lung derived epithelial cells (CFBE41o-F508delCFTR-HRP), doxycycline-inducible
Sequence (P13569 with tags, fused parts or gaps DEL508-508): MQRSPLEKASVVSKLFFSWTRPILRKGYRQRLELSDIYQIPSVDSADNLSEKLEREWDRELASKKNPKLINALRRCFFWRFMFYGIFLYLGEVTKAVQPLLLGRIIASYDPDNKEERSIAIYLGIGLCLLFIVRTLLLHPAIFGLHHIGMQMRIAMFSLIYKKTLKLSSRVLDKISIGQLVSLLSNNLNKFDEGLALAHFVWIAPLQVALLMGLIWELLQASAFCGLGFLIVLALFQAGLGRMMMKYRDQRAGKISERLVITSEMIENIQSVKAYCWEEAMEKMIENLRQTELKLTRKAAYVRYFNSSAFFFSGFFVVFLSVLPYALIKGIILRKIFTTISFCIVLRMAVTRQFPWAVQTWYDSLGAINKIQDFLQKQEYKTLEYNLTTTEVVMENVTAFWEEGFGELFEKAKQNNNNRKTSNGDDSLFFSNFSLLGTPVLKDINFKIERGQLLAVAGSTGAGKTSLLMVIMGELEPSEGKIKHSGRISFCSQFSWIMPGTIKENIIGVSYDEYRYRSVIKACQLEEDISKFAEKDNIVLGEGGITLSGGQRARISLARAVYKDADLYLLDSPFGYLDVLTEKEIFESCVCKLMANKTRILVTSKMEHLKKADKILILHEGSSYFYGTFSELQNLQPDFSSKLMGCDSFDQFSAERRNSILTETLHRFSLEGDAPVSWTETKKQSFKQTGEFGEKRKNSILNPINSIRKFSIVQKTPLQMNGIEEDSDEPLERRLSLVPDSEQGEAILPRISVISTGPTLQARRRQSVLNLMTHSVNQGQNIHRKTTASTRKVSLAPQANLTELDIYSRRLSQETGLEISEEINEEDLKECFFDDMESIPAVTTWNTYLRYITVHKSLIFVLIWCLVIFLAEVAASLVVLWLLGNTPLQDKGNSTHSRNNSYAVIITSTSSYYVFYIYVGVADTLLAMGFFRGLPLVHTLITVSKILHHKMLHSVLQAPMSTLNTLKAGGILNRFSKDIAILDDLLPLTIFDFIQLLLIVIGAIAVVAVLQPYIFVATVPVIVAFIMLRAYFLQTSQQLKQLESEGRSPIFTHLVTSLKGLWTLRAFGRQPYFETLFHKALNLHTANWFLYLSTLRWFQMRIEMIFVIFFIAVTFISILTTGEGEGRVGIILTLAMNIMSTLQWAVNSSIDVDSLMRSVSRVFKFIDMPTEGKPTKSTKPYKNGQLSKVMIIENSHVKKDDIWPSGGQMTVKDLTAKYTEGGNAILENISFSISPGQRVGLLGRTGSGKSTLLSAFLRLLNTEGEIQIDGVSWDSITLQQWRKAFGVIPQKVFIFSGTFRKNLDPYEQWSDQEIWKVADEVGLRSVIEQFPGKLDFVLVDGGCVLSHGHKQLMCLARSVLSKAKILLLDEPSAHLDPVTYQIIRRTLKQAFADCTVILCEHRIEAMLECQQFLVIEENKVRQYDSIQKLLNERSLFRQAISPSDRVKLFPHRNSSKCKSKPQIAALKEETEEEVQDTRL
Assay: Cell Surface Expression-Horse Radish Peroxidase (CSE-HRP) Assay;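 also: co-corrector chromenyl benzoic acid corrector at 2 or 3 µM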
Assay type: cell-based
Conditions: test compound with co-corrector; read-out: EC50 (with co-corrector)
pEC50: −log10 of the molar value.
Each record here notes measured pEC50.

Please report the recorded pEC50 for COc1cnc(OCC(C)C)c(C2(C(=O)NS(=O)(=O)c3cccc4nc(C)ccc34)CC2)c1 .
> 5.52

What measured pEC50 goes with COCCOc1cnc(OC)cc1C1(C(=O)NS(=O)(=O)c2cccc3nc(C)ccc23)CC1 ?
5.00 to 5.52

Name the recorded pEC50 for COc1cnc(C2CC2)c(C2(C(=O)NS(=O)(=O)c3cccc4ncccc34)CC2)c1 .
5.00 to 5.52

Using the record for CCc1ccc(OC(C)C)c(C2(C(=O)NS(=O)(=O)c3cccc4[nH]ccc34)CC2)n1 , report its pEC50.
> 5.52

Entry under review: Cc1ccc2c(S(=O)(=O)NC(=O)C3(c4cc(C5CCC5)cnc4OCC4CC4)CC3)cccc2n1 . Reported pEC50?
> 5.52

Fill blank: measured pEC50 of the molecule CCc1ccc(OC(C)C)c(C2(C(=O)NS(=O)(=O)c3cccc4nc(C)ccc34)CC2)n1 is ____.
5.00 to 5.52

Would you kindly share the measured pEC50 for CCc1cnc(N2CCC(OC)CC2)c(C2(C(=O)NS(=O)(=O)c3cccc4[nH]ccc34)CC2)c1 ?
5.00 to 5.52

Tell me the measured pEC50 of CCc1cnc(N2CCCC2)c(C2(C(=O)NS(=O)(=O)c3cccc4[nH]ccc34)CC2)c1 , please.
> 5.52

Recorded pEC50 for COc1cc(OC(C)C)c(C2(C(=O)NS(=O)(=O)c3cccc4c3CCCN4)CC2)cn1 , please?
5.00 to 5.52

What pEC50 value was documented for this molecule, O=C(NS(=O)(=O)c1cccc2ncccc12)C1(c2cc(Cl)cnc2C(F)(F)F)CC1 ?
< 5.00

Could you tell me which pEC50 is on file for CC(C)COc1ncc(N2CCCC2)cc1C1(C(=O)NS(=O)(=O)c2cccc3[nH]ccc23)CC1 ?
> 5.52

Requested read-out: pEC50. Entry: COCCOc1ncc(C)cc1C1(C(=O)NS(=O)(=O)c2cccc3[nH]ccc23)CC1
5.00 to 5.52

Item under review: COCCOc1cnc(OC)cc1C1(C(=O)NS(=O)(=O)c2cccc3[nH]ccc23)CC1 . Reported pEC50?
5.00 to 5.52

# lookup: pEC50 of Cc1ccc(C2(C(=O)NS(=O)(=O)c3cccc4nc(C)ccc34)CC2)c(OC(C)C)n1
> 5.52

I would be grateful if you could share the reported pEC50 for COc1nc(N(C)C)ccc1C1(C(=O)NS(=O)(=O)c2cccc3ncccc23)CC1 .
5.00 to 5.52

For the molecule CCc1cnc(N(C)C)c(C2(C(=O)NS(=O)(=O)c3cccc4[nH]ccc34)CC2)c1 , what pEC50 is on record?
5.00 to 5.52
